system: human Cat S (Homo sapiens (Human), UniProt P25774)
Sequence (P25774 115-331): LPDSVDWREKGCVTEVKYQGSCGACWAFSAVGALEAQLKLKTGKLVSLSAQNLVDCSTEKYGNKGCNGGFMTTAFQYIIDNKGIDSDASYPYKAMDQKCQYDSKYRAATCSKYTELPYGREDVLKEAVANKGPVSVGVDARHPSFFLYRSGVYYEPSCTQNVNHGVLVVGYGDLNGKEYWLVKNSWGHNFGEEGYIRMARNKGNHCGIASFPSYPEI
protocol: Cathepsin enzyme inhibition assay (human Cat S)
Type: biochemical
condition context: enzyme 1 nM, substrate Z-Val-Val-Arg-AMC 20 μM, pH 6.5
measurement label: log10 of IC50 (log10 of the value in nM)
Record value = log10 of IC50 given in nM.

Field: example entries. Status: answers known.
Return reported log10 of IC50. Input compound: CC(C)(C)OC(=O)N1CC(C(=O)N2C[C@H](S(=O)(=O)c3ccccc3Cl)C[C@H]2C(=O)NC2(C#N)CC2)(c2ncc(Cl)cc2F)C1
0.10

Return reported log10 of IC50. Input compound: C[C@H](Oc1ccc(S(=O)(=O)[C@@H]2C[C@@H](C(=O)NC3(C#N)CC3)N(C(=O)C3(c4ncc(Br)cc4F)CN(C=O)C3)C2)c(Cl)c1)C(F)(F)F
-0.05

Return reported log10 of IC50. Input compound: N#CC1(NC(=O)[C@@H]2C[C@@H](S(=O)(=O)c3ccc(OCC(F)(F)F)cc3Cl)CN2C(=O)C2(c3ncc(Cl)cc3F)CNC2)CC1
0.47

Return reported log10 of IC50. Input compound: C[C@H](Oc1ccc(S(=O)(=O)[C@@H]2C[C@@H](C(=O)NC3(C#N)CC3)N(C(=O)C3(c4ncc(Br)cc4F)CN(CC(F)F)C3)C2)c(Cl)c1)C(F)(F)F
0.00

Return reported log10 of IC50. Input compound: CC(C)(C)OC(=O)N1CC(C(=O)N2C[C@H](S(=O)(=O)c3ccc(OCC(F)(F)F)cc3Cl)C[C@H]2C(=O)NC2(C#N)CC2)(c2ccc(Cl)cn2)C1
0.44

Hey, quick one: what's log10 of IC50 for each of these?
1. C[C@H](Oc1ccc(S(=O)(=O)[C@@H]2C[C@@H](C(=O)NC3(C#N)CC3)N(C(=O)C3(c4ncc(Br)cc4F)CN(CC(F)(F)F)C3)C2)c(Cl)c1)C(F)(F)F
2. N#CC1(NC(=O)[C@@H]2C[C@@H](S(=O)(=O)c3ccc(OCC(F)(F)F)cc3Cl)CN2C(=O)C2(c3ncc(Br)cc3F)CNC2)CC1
3. Cc1cc(-c2ccc(S(=O)(=O)[C@@H]3C[C@@H](C(=O)NC4(C#N)CC4)N(C(=O)C4(c5ncc(Br)cc5F)CCN4C(=O)OC(C)(C)C)C3)c(Cl)c2)ccn1 (stereo partly shown)

1. 0.00
2. 0.22
3. 0.66

====

system: human Cat L (Homo sapiens (Human), UniProt P07711)
Sequence (P07711 114-333): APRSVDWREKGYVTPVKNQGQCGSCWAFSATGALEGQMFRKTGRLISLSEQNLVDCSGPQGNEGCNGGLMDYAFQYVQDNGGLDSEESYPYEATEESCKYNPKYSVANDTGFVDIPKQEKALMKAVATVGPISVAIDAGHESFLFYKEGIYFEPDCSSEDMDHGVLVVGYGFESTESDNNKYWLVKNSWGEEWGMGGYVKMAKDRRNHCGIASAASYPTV
protocol: Cathepsin enzyme inhibition assay (human Cat L)
Assay type: biochemical
condition context: enzyme 1 nM, substrate Z-Val-Val-Arg-AMC 20 μM, pH 6.5, hydrochloride
Where a name gives a salt, the structure may show the parent alone.
Answer each item with its documented pIC50.
One number for each entry, as −log10 of the molar value.

Field: example entries. Status: answers known.
Return reported pIC50. Input compound: N#CC1(NC(=O)[C@@H]2C[C@@H](S(=O)(=O)c3ccc(F)cc3Cl)CN2C(=O)C2(c3ncc(Cl)cc3F)CCN2)CC1 (stereo partly shown) [Example 35, hydrochloride]
5.84

Return reported pIC50. Input compound: C[C@H](Oc1ccc(S(=O)(=O)[C@@H]2C[C@@H](C(=O)NC3(C#N)CC3)N(C(=O)C3(c4ncc(Cl)cc4F)CCN3)C2)c(Cl)c1)C(F)(F)F (stereo partly shown) [Example 38, hydrochloride]
6.50

Return reported pIC50. Input compound: N#CC1(NC(=O)[C@@H]2C[C@@H](S(=O)(=O)c3ccc(F)cc3Cl)CN2C(=O)C2(c3ncc(Cl)cc3F)CCN2)CC1 (stereo partly shown) [Example 31, hydrochloride]
7.09

Now for another entry.
Return reported pIC50. Input compound: C[C@H](Oc1ccc(S(=O)(=O)[C@@H]2C[C@@H](C(=O)NC3(C#N)CC3)N(C(=O)C3(c4ncc(Cl)cc4F)CCN3)C2)c(Cl)c1)C(F)(F)F (stereo partly shown) [Example 37, hydrochloride]
7.23
